Numbers sourced from PubChem BioAssay (NCI).

Values of GI50 reported for NCI-H460 lung appear below.
QUANTITY: GI50

COMPOUND | QUANTITY | REPORTED
N[C@@H]1CCCN(c2c(Br)cnc3[nH]cc(NC(=O)C4CC4)c23)C1 | GI50 | 0.785 µM
O=c1c(I)c[nH]cc1I | GI50 | > 100 µM
Cc1ccc(-c2nc(NCCOCCOCCN)nc(N3CCN(c4ccccn4)CC3)n2)cc1 | GI50 | 13.9 µM
CCSC[C@@H]1C[C@](O)(c2ccccc2)[C@@H](c2ccccc2)O1 | GI50 | > 76.1 µM
CC(=O)c1cc2c(N)c(C(=O)Nc3cccc4ccccc34)sc2nc1C | GI50 | 1.61 µM
CCc1ccc2c(c1)C(=O)c1c-2n(CCCN)c(=O)c2cc(OC)c(OC)cc12 | GI50 | 1.85 µM
COC(=O)c1c(C)nc(C)c2c1C(=O)C(Br)=C(NCc1ccccc1)C2=O | GI50 | 2.94 µM
Nc1nc(SCc2ccccc2CCl)c2[nH]cnc2n1 | GI50 | 15.2 µM
COc1cccc(C2CC(=O)Nc3c2c(C)nn3-c2nc3ccccc3[nH]2)c1OC (centres undefined) | GI50 | 3.09 µM
